Origin of values: the supplement of paper PMC10724198

- System: Saccharomyces cerevisiae
- test_summary: protein stability index of tFT-peptide fusion (C-terminal peptide) (PSI (0-1 scale)); higher = more stable (slower turnover);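 further: PSI is a weighted mean of sequencing reads over stability bins, variants kept only with over 10 reads, mCherry proximal and sfGFP distal, peptide attached via GGGS linker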
- condition_set: genetic background: wild type; temperature: 30 C

{"columns": ["polymer_sequence", "protein stability index"],
 "data": [
  ["DARRAKPTRRNA", 0.688],
  ["VRKGSERKKAGN", 0.669],
  ["IGSHDTRVVKMD", 0.731],
  ["YCGGRCGGWEIG", 0.698],
  ["AFLMPFPSRLCV", 0.581],
  ["FHLFIRRSAVIF", 0.439],
  ["LHPRCVLPHFRV", 0.627],
  ["LNQRGKRKYLIM", 0.452],
  ["FPGPPSPPPSYF", 0.706],
  ["PPRFCPPLAPSV", 0.681],
  ["HPPSLPSAPSLP", 0.694],
  ["PPPHPGFHLSSP", 0.673],
  ["SPSSLPPVPPSP", 0.676],
  ["KSSEIKEKKTKK", 0.715],
  ["GTMAVWKGQRSG", 0.698],
  ["IVSGVSVHLGVG", 0.612],
  ["WWLRLVLCGWEW", 0.721],
  ["PPPPIRRPASHL", 0.76],
  ["CGTYFRLTRCAV", 0.577],
  ["PPPPAPPAPPLR", 0.732],
  ["SSSPTFLLSPFP", 0.721],
  ["GPGRGWQGGPKL", 0.739],
  ["HKENTKEKKKRE", 0.693],
  ["ACFFNCFISLPF", 0.584],
  ["LSPTQSTLPTPP", 0.673],
  ["TVGSPTPRSSAP", 0.707],
  ["LRFRGKSQNDYD", 0.67],
  ["RLAVLSLPPHPT", 0.668],
  ["RADGHGARFRVR", 0.799],
  ["GLCVFVNKPSIL", 0.711],
  ["GRWRRWSSEGLG", 0.684],
  ["VKSQRISVMIKK", 0.689],
  ["LFVGSSPPPSPP", 0.643],
  ["AALLQAGMPRTR", 0.692],
  ["RGVPPPCPLLAA", 0.599],
  ["VPSANAQTPSTC", 0.717],
  ["RHMLSDFIDACS", 0.72],
  ["YPSCPINFICLC", 0.417],
  ["PACPPTSDFPSL", 0.623],
  ["FVASEFEVRLWR", 0.769],
  ["GGPSLTRCAAFG", 0.677]
]}

----------
- Test system: Saccharomyces cerevisiae
- test_summary: protein stability index of tFT-peptide fusion (C-terminal peptide) (PSI (0-1 scale)); higher = more stable (slower turnover)
- condition_set: genetic background: das1 deletion; temperature: 37 C
parameter: protein stability index

{"columns": ["polymer_sequence", "readout_number"],
 "data": [
  ["VSCLDLCFVISR", 0.669],
  ["VTMTPSLCFSYS", 0.668],
  ["PHLDLYRLSALI", 0.79],
  ["WQILVRLIDFYT", 0.511],
  ["ACSRKPIWVTWL", 0.732],
  ["PPSPPLLFHFPP", 0.737],
  ["PPRDPGGLFTPF", 0.776],
  ["CRLRYSILWFRL", 0.309],
  ["SSLTFTFAILLY", 0.339],
  ["LFFFRLFVFWVF", 0.369],
  ["FVGLFEYILLFV", 0.358],
  ["IVCAVTSIFLFF", 0.452],
  ["VSLLSLGYVFVY", 0.347],
  ["LFLSAFFYLLVW", 0.341],
  ["VTRLLLSRIDCY", 0.501],
  ["TVRVWPRNLWFS", 0.727],
  ["LSPLSPLLFRLI", 0.62],
  ["GGRWRRRGFFFS", 0.709],
  ["VLLCGCVWLWWG", 0.525],
  ["RGCLVHSGFFIV", 0.69],
  ["WFCYFSLYVFLL", 0.24],
  ["LVYCWFAEYFLV", 0.586],
  ["LVFSFFFLFFFM", 0.46],
  ["PFIPLLLAPALA", 0.458],
  ["TVHVIVVCRELA", 0.52],
  ["MWFFFICYFLSV", 0.411],
  ["LVYLVCAYSECE", 0.477],
  ["WILIGVRFSCFG", 0.339],
  ["LSASFYFVFFSN", 0.629],
  ["SLRPFFPPLPRP", 0.731],
  ["KRMVEKNKKKIN", 0.729],
  ["MSIWKIFIWRLG", 0.648],
  ["RVFRLDRRLQVV", 0.638],
  ["DVPLFLPLPVSV", 0.452],
  ["FPVWTALLTVRA", 0.259],
  ["LVSSYVPFFFAL", 0.752],
  ["ALLWEFVPCSVR", 0.56],
  ["PPTLLPPLHPAP", 0.722],
  ["LLMWVLFDCHYS", 0.552],
  ["FFVEKRVFFGII", 0.738],
  ["GLLAFVCISHTS", 0.575]
]}

----------
- Tested on: Saccharomyces cerevisiae
- test_summary: protein stability index of tFT-peptide fusion (C-terminal peptide) (PSI (0-1 scale)); higher = more stable (slower turnover)
- condition_set: genetic background: cdc34-1; temperature: 37 C

{"columns": ["polymer_sequence", "protein stability index"],
 "data": [
  ["IDSEVHLWKRSA", 0.618],
  ["GGGWGVFVVLWW", 0.193],
  ["PLPCFVLRLPVF", 0.39],
  ["IACVLSIFLNAA", 0.325],
  ["WFVLYAEVMGFW", 0.205],
  ["GQSRLVADLRQV", 0.635],
  ["LRNYKCLRLLIC", 0.293],
  ["PHVSALSRDPES", 0.698],
  ["GWRGVVLVFVLV", 0.302],
  ["SNFDVRRLLVIQ", 0.616],
  ["VVGVVVCWGCGW", 0.493],
  ["NVWCWGASCFFC", 0.709],
  ["PLFFGVQAFGGV", 0.727],
  ["FMRKLVVLVVLG", 0.257],
  ["LWFVIYLLCFFV", 0.394],
  ["TMSGVTRCVLVL", 0.521],
  ["RCLHTSVFLIFP", 0.484],
  ["GRGFVLSVAVVA", 0.404],
  ["ILRIYIPRWRRQ", 0.648],
  ["LNQRGKRKYLIM", 0.711],
  ["FCCFFVHMSFFL", 0.26]
]}

----------
protein stability index values, listed per item
- Tested on: Saccharomyces cerevisiae
- test_summary: protein stability index of tFT-peptide fusion (C-terminal peptide) (PSI (0-1 scale)); higher = more stable (slower turnover)
- condition_set: genetic background: das1 deletion; temperature: 30 C

{"columns": ["polymer_sequence", "protein stability index"],
 "data": [
  ["PCVCFIILGMLS", 0.322],
  ["LGDPPCRMIVVR", 0.353],
  ["RWTKMNNLIIEF", 0.667],
  ["FMRKLVVLVVLG", 0.222],
  ["NTNITHHSVKLR", 0.64],
  ["LCLICLFLLKVL", 0.395],
  ["LAPPFPVVLTPA", 0.263],
  ["VWICPTLFLLFS", 0.369],
  ["GPHATYLYLVLA", 0.226],
  ["LPPPYSPRLFHN", 0.699],
  ["STLPACNCLKLL", 0.622],
  ["GLGLIRTSRLLC", 0.627],
  ["CGSFWVNVLCAV", 0.334],
  ["FVRCFWPFVFVF", 0.222],
  ["SPSTPQALSNFS", 0.657],
  ["GGYCQMFFLYFR", 0.0923],
  ["NNGLLLDILIKA", 0.28],
  ["LFKFCLGIPLFL", 0.412],
  ["VYQAFIFRMSLF", 0.586]
]}

----------
- System: Saccharomyces cerevisiae
- test_summary: protein stability index of tFT-peptide fusion (C-terminal peptide) (PSI (0-1 scale)); higher = more stable (slower turnover)
- condition_set: genetic background: cdc53-1; temperature: 37 C
Criterion: protein stability index meeting or surpassing 0.5. Met: class 1. Not met: class 0.

{"columns": ["polymer_sequence", "tgt", "label"],
 "data": [
  ["GGGHGSSCSVCD", "Saccharomyces cerevisiae", "class 1"],
  ["SDLQVMKLRSVC", "Saccharomyces cerevisiae", "class 1"],
  ["FSFPIIFFGMFL", "Saccharomyces cerevisiae", "class 0"],
  ["SMPWFWFVRGIG", "Saccharomyces cerevisiae", "class 1"],
  ["HLAQYSSSLHLM", "Saccharomyces cerevisiae", "class 1"],
  ["VLLRSRLLRRLS", "Saccharomyces cerevisiae", "class 1"],
  ["MIVAIQLVDHPP", "Saccharomyces cerevisiae", "class 1"],
  ["QVLISLYVHGYF", "Saccharomyces cerevisiae", "class 1"],
  ["AFYLCLYFMPVS", "Saccharomyces cerevisiae", "class 1"],
  ["VAFLYCHFFYCI", "Saccharomyces cerevisiae", "class 1"],
  ["SWSLRLSTIFSV", "Saccharomyces cerevisiae", "class 1"],
  ["VYTVGFVCWLVY", "Saccharomyces cerevisiae", "class 0"],
  ["PPRCLLPPPSRS", "Saccharomyces cerevisiae", "class 1"],
  ["LNTVALIRIVVS", "Saccharomyces cerevisiae", "class 0"],
  ["LFLVLFCVVGFV", "Saccharomyces cerevisiae", "class 0"],
  ["CLCLICFLCWFA", "Saccharomyces cerevisiae", "class 1"],
  ["RLFIIYLLNIQG", "Saccharomyces cerevisiae", "class 1"],
  ["RVGSSLIVVYCV", "Saccharomyces cerevisiae", "class 0"],
  ["FSCSRNVLVTVV", "Saccharomyces cerevisiae", "class 0"]
]}
